test system: HEL; assay: cell viability (% survival relative to DMSO control, bortezomib = 0%); higher = less cytotoxic; settings: 10 nM; 72 h
Counter-ions that a name gives are not always drawn.
property.label: cell viability

CN(C)C(=O)[C@H](O)[C@H](Cc1ccccc1)NC(=O)c1cc2cc(Cl)ccc2[nH]1 = 102%
Cc1cn([C@H]2C[C@H](O)[C@@H](COP(=O)(O)OP(=O)(O)O)O2)c(=O)[nH]c1=O [Thymidine diphosphate] = 89.4%
CCOC(=O)c1ccc(-c2ccc(OC(=O)N(C)Cc3cccc(-c4ccncc4)c3)cc2)cc1 [WWL113] = 99.2%
Cc1cc(CS(=O)(=O)c2ccccc2)cc(OCc2ccc(CN3CCC[C@@H]3CO)cc2)c1 [PF-543 hydrochloride] = 88.6%
